- Test system: U2OS
- method: Multiplex assay against U2OS
- Format: toxicity, cell-based
- experimental context: human, 48 h, 1 µM, compound concentration 1 uM, replicate 2
Each entry below carries its reported Population Membrane Permeable-Phenotype (%).
Report the value in % with no unit label.

Examples with their reported Population Membrane Permeable-Phenotype (%) follow.
compound	unit info	val
COc1cc(Nc2nccc(-c3cnn4nc(OC)ccc34)n2)cc(C(F)(F)F)c1	%	15
O=C(c1cc2c(cc1F)OC(c1ccc(F)cc1)(c1ccc(Cl)cc1Cl)O2)N1CCOCC1 (stereo not given)	%	6
Cl.O=C(O)c1cc(-c2ccc(C3CCNCC3)cc2)c2ccc(-c3ccc(C(F)(F)F)cc3)cc2c1	%	4
C[C@]12CC[C@@H]3c4ccc(O)cc4CC[C@H]3[C@@H]1CC[C@@H]2O	%	12

Let us examine a further case.
*Q* Give the reported Population Membrane Permeable-Phenotype (%) for this compound. "Cc1c[nH]c2nccc(Oc3c(F)cc(Nc4cc(Cl)nc(N)n4)cc3F)c12"
*A* 11
